test: Assessment of solubility (McIlvaine buffers, 24 h shake, UPLC-UV); assay type: physicochemical; details: pH 6.8, aqueous buffer, kinetic from dmso stock
property.name: solubility at 24 h (µg/mL)

Reference set (6 entries):
compound	measurement.units	solubility at 24 h
COc1c(C(=O)O)cnn1-c1cccc(-c2cccc(C)c2OCc2ccc3c(c2C)CCN(C2COC2)C3)n1 [Compound 16]	µg/mL	81
COc1c(C(=O)O)cnn1-c1cccc(-c2cccc(C)c2OCc2ccc3c(c2C)CCN(C2CCOCC2)CC3)n1 [Compound 184]	µg/mL	76
COc1c(C(=O)O)cnn1-c1cccc(-c2cc(F)cc(F)c2OCc2ccc3c(c2)CCN(C2COC2)C3)n1 [Compound 52]	µg/mL	73
COc1c(C(=O)O)cnn1-c1cccc(-c2cccc(Cl)c2OCc2ccc3c(c2)CCN(C2COC2)C3)n1 [Compound 7]	µg/mL	91
COCCOc1c(C(=O)O)cnn1-c1cccc(-c2cccc(C)c2OCc2ccc3c(c2C)CCN(C2CCCOC2)C3)n1 (centres unmarked) [Compound 149]	µg/mL	81
CCOc1c(C(=O)O)cnn1-c1cccc(-c2cccc(C)c2OCc2ccc3c(c2)CCN(C2CC(C)(C)OC(C)(C)C2)C3)n1 [Compound 67]	µg/mL	78

(I) COc1c(C(=O)O)cnn1-c1cccc(-c2cccc(C)c2OCc2ccc3c(c2)CN(C2COC2)C3)n1 [Compound 85]
(II) COc1c(C(=O)O)cnn1-c1cccc(-c2cccc(C)c2OCc2cc(C)c3c(c2)CCN(C2CCCOC2)C3)n1 (centres unmarked) [Compound 237]
(III) COc1c(C(=O)O)cnn1-c1cccc(-c2cccc(C)c2OCc2ccc3c(c2)CCN(CC(C)(C)C)C3)n1 [Compound 14]
Input line: Endpoint returns the given compounds ordered by ascending solubility at 24 h. List the labels, following the order given in the request.
Output line: II, III, I

====

assay: Assessment of solubility (McIlvaine buffers, 24 h shake, UPLC-UV); assay type: physicochemical; conditions: pH 6.8, aqueous buffer, kinetic from dmso stock
property.name: solubility at 24 h (µg/mL)

# annotated cases, reported solubility at 24 h shown
compound	value.observed
COc1c(C(=O)O)cnn1-c1cccc(-c2cccc(C)c2OCc2cc(C)c3c(c2)CCN(C2COC2)C3)n1	99
COc1c(C(=O)O)cnn1-c1cccc(-c2cccc(C)c2OCc2ccc3c(c2)CN(CC2CC(F)(F)C2)C3)n1	97
Cc1cc(COc2c(C)cccc2-c2cccc(-n3ncc(C(=O)O)c3OC(C)C)n2)cc2c1CN(C1CCOCC1)CC2	97
COCC(C)N1CCc2c(ccc(COc3c(C)cccc3-c3cccc(-n4ncc(C(=O)O)c4OC(C)C)n3)c2C)C1 (stereo not shown)	88
COc1c(C(=O)O)cnn1-c1cccc(-c2cccc(C)c2OCc2ccc3c(c2Cl)CCN(C2CCOCC2)C3)n1	90

(I) Cc1cccc(-c2cccc(-n3ncc(C(=O)O)c3OC(C)C)n2)c1OCc1ccc2c(c1)CCN(CC1CC(F)(F)C1)C2
(II) CCOc1c(C(=O)O)cnn1-c1cccc(-c2cccc(Cl)c2OCc2ccc3c(c2)CCN(C2CCOC2)C3)n1 (stereo not shown)
Input line: Could you tell me which of I and II has the lower solubility at 24 h reading? Mark your selection by writing its label.
Output line: II

====

Biological target: human soluble guanylate cyclase alpha 1 and beta 1 subunits (sGC) (Homo sapiens, UniProt Q02108+Q02153)
Sequence (Q02108 1-690): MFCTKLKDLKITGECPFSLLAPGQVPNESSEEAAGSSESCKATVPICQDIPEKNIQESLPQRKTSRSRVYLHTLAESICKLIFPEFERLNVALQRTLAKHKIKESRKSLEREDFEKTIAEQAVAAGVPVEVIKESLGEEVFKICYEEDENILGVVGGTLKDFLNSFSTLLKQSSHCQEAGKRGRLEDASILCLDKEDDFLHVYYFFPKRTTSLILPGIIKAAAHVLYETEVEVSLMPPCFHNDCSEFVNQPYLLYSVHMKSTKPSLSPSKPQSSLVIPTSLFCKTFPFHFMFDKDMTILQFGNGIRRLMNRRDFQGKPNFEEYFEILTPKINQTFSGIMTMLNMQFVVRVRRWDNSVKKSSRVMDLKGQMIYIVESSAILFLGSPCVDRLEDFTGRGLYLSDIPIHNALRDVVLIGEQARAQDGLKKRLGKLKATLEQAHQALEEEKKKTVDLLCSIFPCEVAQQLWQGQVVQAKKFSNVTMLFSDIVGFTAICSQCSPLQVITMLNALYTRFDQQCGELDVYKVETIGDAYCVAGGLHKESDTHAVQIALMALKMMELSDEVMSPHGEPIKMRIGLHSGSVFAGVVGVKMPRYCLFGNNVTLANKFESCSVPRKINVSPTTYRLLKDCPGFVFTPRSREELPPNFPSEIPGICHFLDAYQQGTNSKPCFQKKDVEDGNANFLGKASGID
Sequence (Q02153 1-619): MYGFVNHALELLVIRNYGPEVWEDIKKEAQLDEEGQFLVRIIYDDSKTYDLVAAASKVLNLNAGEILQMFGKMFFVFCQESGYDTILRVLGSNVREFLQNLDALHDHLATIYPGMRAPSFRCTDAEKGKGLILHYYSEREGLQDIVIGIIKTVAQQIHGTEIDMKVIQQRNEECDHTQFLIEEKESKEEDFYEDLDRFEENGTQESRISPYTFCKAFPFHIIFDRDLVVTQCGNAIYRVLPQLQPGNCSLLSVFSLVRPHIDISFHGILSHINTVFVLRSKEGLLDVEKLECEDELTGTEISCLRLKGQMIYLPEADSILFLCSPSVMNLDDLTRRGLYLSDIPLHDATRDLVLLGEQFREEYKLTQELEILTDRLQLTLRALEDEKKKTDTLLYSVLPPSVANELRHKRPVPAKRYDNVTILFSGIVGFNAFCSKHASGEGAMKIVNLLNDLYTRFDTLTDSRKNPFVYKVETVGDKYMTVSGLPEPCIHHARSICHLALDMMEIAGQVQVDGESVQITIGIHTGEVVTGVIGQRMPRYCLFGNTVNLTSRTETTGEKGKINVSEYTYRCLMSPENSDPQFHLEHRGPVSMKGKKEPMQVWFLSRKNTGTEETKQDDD
Test: sGC cellular activator assay (cGMP, HTRF)
Conditions: CHO cells stably expressing human sGC alpha 1/beta 1, preincubated with 40 microM ODQ; cGMP readout; assay run with and without 50% human serum, Table 2 does not say which
property.name: EC50 (nM)

compound	property.name	value.observed
Cc1cccc(-c2cccc(-n3ncc(C(=O)O)c3OC(C)C)n2)c1OCc1ccc2c(c1C)CCN(CC1(C)COC1)C2 [Compound 46]	EC50	38
CCOc1c(C(=O)O)cnn1-c1cccc(-c2cccc(C)c2OCc2cc(C)c3c(c2)CN(C2CCOCC2)C3)n1 [Compound 118]	EC50	39
CCOc1c(C(=O)O)cnn1-c1cccc(-c2cccc(C)c2OCc2ccc3c(c2CC)CCN(C2CCOCC2)C3)n1 [Compound 154]	EC50	28
CCOc1c(C(=O)O)cnn1-c1cccc(-c2cccc(C)c2OCc2ccc3c(c2C)CCN(C2COC2)C3)n1 [Compound 164]	EC50	32

====

molecular target: human soluble guanylate cyclase alpha 1 and beta 1 subunits (sGC) (Homo sapiens, UniProt Q02108+Q02153); test: sGC cellular activator assay (cGMP, HTRF); conditions: CHO cells stably expressing human sGC alpha 1/beta 1, preincubated with 40 microM ODQ; cGMP readout; assay run with and without 50% human serum, Table 2 does not say which
property.name: EC50 (µM)

# count of solved cases: 3
compound	measurement.units	EC50
CCOc1c(C(=O)O)cnn1-c1cccc(-c2cccc(C)c2OCc2ccc3c(c2OC)CCN(C2COC2)C3)n1 [Compound 221]	µM	0.21
CCOc1c(C(=O)O)cnn1-c1cccc(-c2cccc(C)c2OCc2ccc3c(c2)CN(C2CCOCC2)C3)n1 [Compound 216]	µM	0.11
CCOc1c(C(=O)O)cnn1-c1cccc(-c2cccc(C)c2OCc2ccc3c(c2C)CCN(C[C@@H]2CCCO2)CC3)n1 [Compound 235]	µM	0.02

(P) CCOc1c(C(=O)O)cnn1-c1cccc(-c2cccc(C)c2OCc2ccc3c(c2C)CCN(C[C@H]2CCOC2)C3)n1 [Compound 193]
(Q) COc1c(C(=O)O)cnn1-c1cccc(-c2cccc(C)c2OCc2ccc3c(c2)CCN(CC(C)(C)C)C3)n1 [Compound 14]
Input line: Could you please tell me which of these two has the higher EC50: P or Q ? Could you answer with the label of the item you picked?
Output line: Q

(1) Cc1cccc(-c2cccc(-n3ncc(C(=O)O)c3OC(C)C)n2)c1OCc1ccc2c(c1C)CCN([C@H]1CCCOC1)C2 [Compound 117]
(2) COc1c(C(=O)O)cnn1-c1cccc(-c2cccc(C)c2OCc2ccc3c(c2)CCN(C2CCOCC2OC)C3)n1 (centres unmarked) [Compound 81]
Input line: Field: entry with larger EC50 (options 1 / 2 ). The response must carry the label of the picked entry.
Output line: 2

(A) Cc1cccc(-c2cccc(-n3ncc(C(=O)O)c3OC(C)C)n2)c1OCc1ccc2c(c1C)CCN(C1COC1)C2 [Compound 45]
(B) Cc1cccc(-c2cccc(-n3ncc(C(=O)O)c3OC(C)C)n2)c1OCc1ccc2c(c1)CCN(CC1(C)COC1)C2 [Compound 40]
(C) COc1c(C(=O)O)cnn1-c1cccc(-c2cccc(C)c2OCc2cc(C)c3c(c2)CN(C2CCOCC2)C3)n1 [Compound 255]
(D) COc1c(C(=O)O)cnn1-c1cccc(-c2cccc(C)c2OCc2ccc3c(c2)CCN(C2COC2)C3)n1 [Compound 8]
Input line: Let's sort these by EC50, smallest first. Go ahead? Reply: labels, ordered per the request.
Output line: C, A, D, B

(a) CCOc1c(C(=O)O)cnn1-c1cccc(-c2cccc(Cl)c2OCc2ccc3c(c2)CCN(C2CCC(F)(F)CC2)C3)n1 [Compound 57]
(b) CCOc1c(C(=O)O)cnn1-c1cccc(-c2cccc(Cl)c2OCc2ccc3c(c2)CCN(C2CCOCC2)C3)n1 [Compound 54]
Input line: Of the two listed items, a and b , which carries the larger EC50 figure? Output the label that corresponds to your choice.
Output line: b
